# target: TGFBR2 (Homo sapiens)
pIC50: −log10 of the molar value.
test.readout: pIC50

These solved cases illustrate the format of a correct answer.
INSERT INTO assay_data (compound, test_readout, obs_value) VALUES
  ('NCCc1ccc(-c2cnc(N)c(C(=O)Nc3cncc(-c4ccccc4N)c3)n2)cc1 [Compound 148]', 'pIC50', '6.00 to 7.00'),
  ('CC(C)(C)OC(=O)N[C@H]1CCN(c2ccc(-c3cnc(N)c(C(=O)Nc4cnccc4N4CCOCC4)n3)cc2)C1 [Compound 273]', 'pIC50', '> 7.30');

Lab request: please report pIC50 under test system TGFBR2 (Homo sapiens) for Nc1ncc(-c2ccc3c(c2)CCC(=O)N3)nc1C(=O)Nc1cnccc1N1CCOCC1 [Compound 198]
7.00 to 7.30

Lab request: please report pIC50 under test system TGFBR2 (Homo sapiens) for Nc1ncc(-c2ccc(CCNC(=O)OCc3ccccc3)cc2)nc1C(=O)Nc1cnccc1CN1CCCC1 [Compound 72]
7.00 to 7.30

* * *

# target: TGFBR2 (Homo sapiens)
test.readout: IC50

INSERT INTO measurements (molecule, test_readout, obs_value) VALUES
  ('Nc1ncc(-c2ccc(OCC[C@H](NC(=O)OCc3ccccc3)C(=O)O)cc2)nc1C(=O)Nc1cnccc1N1CCOCC1', 'IC50', '< 50 nM'),
  ('NCC1NCCc2cc(-c3cnc(N)c(C(=O)Nc4cnccc4N4CCOCC4)n3)ccc21 (stereo not shown)', 'IC50', '< 50 nM'),
  ('Nc1ncc(-c2ccc(CCNC(=O)OCc3ccccc3)cc2)nc1C(=O)Nc1cncc(-c2ccccc2[N+](=O)[O-])c1', 'IC50', '< 50 nM');

Using the record for "Nc1ncc(-c2ccc(N3CCOCC3)cc2)nc1C(=O)Nc1cnccc1N1CCOCC1" , report its IC50.
< 50 nM

Using the record for "COc1ccccc1-c1cnc(N)c(C(=O)Nc2cnccc2N2CCOCC2)n1" , report its IC50.
100 to 1000 nM

Using the record for NCC1CN(c2ccncc2NC(=O)c2nc(-c3ccc(CCNC(=O)OCc4ccccc4)cc3)cnc2N)CCO1 (stereo not shown) , report its IC50.
100 to 1000 nM

Using the record for Nc1ncc(-c2ccc3c(c2)C(O)CC3)nc1C(=O)Nc1cnccc1N1CCOCC1 (stereo not shown) , report its IC50.
< 50 nM

* * *

The following are reported IC50 results, target or system UniProt:P37173.

INSERT INTO assay_data (compound, obs_value) VALUES
  ('Nc1ncc(-c2ccc3c(c2)OCCN3)nc1C(=O)Nc1cnccc1N1CCOCC1 [Compound 217]', '< 50 nM'),
  ('NCCCc1ccc(-c2cnc(N)c(C(=O)Nc3cnccc3N3CCOCC3)n2)cc1 [Compound 2.1]', '< 50 nM'),
  ('CC(C)(C)OC(=O)NC1CCN(c2ccc(-c3cnc(N)c(C(=O)Nc4cnccc4N4CCOCC4)n3)cc2)CC1 [Compound 280]', '< 50 nM'),
  ('CNc1ncc(-c2ccc(OC(C)CN)cc2)nc1C(=O)Nc1cnccc1N1CCOCC1 (stereo not shown) [Compound 254]', '> 1000 nM'),
  ('Nc1ncc(-c2ccc(CN3CCNCC3)cc2)nc1C(=O)Nc1cnccc1N1CCOCC1 [Compound 91]', '50 to 100 nM'),
  ('Nc1ncc(-c2ccc(CCNC(=O)OCc3ccccc3)cc2)nc1C(=O)Nc1cnccc1-c1ccccn1 [Compound 133]', '< 50 nM'),
  ('Nc1ncc(-c2ccc3c(c2)CCCNC3)nc1C(=O)Nc1cnccc1N1CCOCC1 [Compound 229]', '50 to 100 nM'),
  ('Nc1ncc(-c2ccc(O[C@@H]3CCCNC3)cc2)nc1C(=O)Nc1cnccc1N1CCOCC1 [Compound 168]', '< 50 nM'),
  ('Nc1ncc(N2CCC3(CCNCC3)C2)nc1C(=O)Nc1cnccc1N1CCOCC1 [Compound 114]', '> 1000 nM');

Read the next record carefully.
Lab request: please report IC50 under test system UniProt:P37173 for NCCc1ccc(-c2cnc(N)c(C(=O)Nc3cncc(-c4ccccc4[N+](=O)[O-])c3)n2)cc1 [Compound 147]
50 to 100 nM

* * *

The following are reported IC50 results, target or system TGFBR2 (Homo sapiens, UniProt P37173).

INSERT INTO results (substance_smiles, target, obs_value) VALUES
  ('Nc1ncc(-c2ccc3c(c2)CCNC3=O)nc1C(=O)Nc1cnccc1N1CCOCC1', 'TGFBR2 (Homo sapiens, UniProt P37173)', '100 to 1000 nM');

Using the record for "CC(C)(C)OC(=O)N[C@H]1C[C@@H](Oc2ccc(-c3cnc(N)c(C(=O)Nc4cnccc4N4CCOCC4)n3)cc2)C1" , report its IC50.
< 50 nM

Using the record for "CC(=O)CCC(=O)NCCc1ccc(-c2cnc(N)c(C(=O)Nc3cnccc3N3CCOCC3)n2)cc1" , report its IC50.
< 50 nM

Using the record for "Nc1ncc(N2CCNCC2)nc1C(=O)Nc1cnccc1N1CCOCC1" , report its IC50.
> 1000 nM

* * *

Quick list: pIC50 per entry.
# target: TGFBR2 (Homo sapiens)
pIC50: −log10 of the molar value.

INSERT INTO measurements (compound, obs_value) VALUES
  ('CC(C)(C)OC(=O)N[C@@H](Cc1ccc(-c2cnc(N)c(C(=O)Nc3cnccc3N3CCOCC3)n2)cc1)C(=O)O', '> 7.30'),
  ('CC(CNC(=O)OC(C)(C)C)Oc1cccc(-c2cnc(N)c(C(=O)Nc3cnccc3N3CCOCC3)n2)c1 (stereo not drawn)', '> 7.30'),
  ('COc1ccc(-c2cnc(N)c(C(=O)Nc3cnccc3N3CCOCC3)n2)c(OC)c1', '6.00 to 7.00'),
  ('Nc1ncc(-c2ccc(O[C@@H]3CCCN(C(=O)OCc4ccccc4)C3)cc2)nc1C(=O)Nc1cnccc1N1CCOCC1', '6.00 to 7.00'),
  ('CC(C)(C)OC(=O)NCCOc1cccc(-c2cnc(N)c(C(=O)Nc3cnccc3N3CCOCC3)n2)c1', '> 7.30'),
  ('COC(=O)[C@H](N)CCOc1ccc(-c2cnc(N)c(C(=O)Nc3cnccc3N3CCOCC3)n2)cc1', '> 7.30');

Read the next record carefully.
Lab request: please report pIC50 under test system TGFBR2 (Homo sapiens) for "Nc1ncc(-c2ccc(N3CC[C@@H](N)C3)cc2)nc1C(=O)Nc1cnccc1N1CCOCC1"
> 7.30

* * *

The following are reported IC50 results, target or system TGFBR2 (Homo sapiens, UniProt P37173).

Lab request: please report IC50 under test system TGFBR2 (Homo sapiens, UniProt P37173) for COC(=O)c1cc(-c2cnc(NC(=O)OC(C)(C)C)c(C(=O)Nc3cnccc3N3CCOCC3)n2)ccc1OCCCNC(=O)OC(C)(C)C [Compound 242]
50 to 100 nM

Lab request: please report IC50 under test system TGFBR2 (Homo sapiens, UniProt P37173) for COc1ccc(-c2cnc(N)c(C(=O)Nc3cnccc3N3CCOCC3)n2)cc1OC [Compound 158]
< 50 nM

Lab request: please report IC50 under test system TGFBR2 (Homo sapiens, UniProt P37173) for Nc1ncc(-c2ccc(C[C@@H](N)C(=O)O)cc2)nc1C(=O)Nc1cnccc1N1CCOCC1 [Compound 197]
100 to 1000 nM

Lab request: please report IC50 under test system TGFBR2 (Homo sapiens, UniProt P37173) for Nc1ncc(-c2ccc(O[C@H]3C[C@H](N)C3)cc2)nc1C(=O)Nc1cnccc1N1CCOCC1 [Compound 222]
< 50 nM

* * *

# target: TGFBR2 (Homo sapiens, UniProt P37173)
# Construct: purchased Reaction Biology Corp
# Sequence (P37173 23-567): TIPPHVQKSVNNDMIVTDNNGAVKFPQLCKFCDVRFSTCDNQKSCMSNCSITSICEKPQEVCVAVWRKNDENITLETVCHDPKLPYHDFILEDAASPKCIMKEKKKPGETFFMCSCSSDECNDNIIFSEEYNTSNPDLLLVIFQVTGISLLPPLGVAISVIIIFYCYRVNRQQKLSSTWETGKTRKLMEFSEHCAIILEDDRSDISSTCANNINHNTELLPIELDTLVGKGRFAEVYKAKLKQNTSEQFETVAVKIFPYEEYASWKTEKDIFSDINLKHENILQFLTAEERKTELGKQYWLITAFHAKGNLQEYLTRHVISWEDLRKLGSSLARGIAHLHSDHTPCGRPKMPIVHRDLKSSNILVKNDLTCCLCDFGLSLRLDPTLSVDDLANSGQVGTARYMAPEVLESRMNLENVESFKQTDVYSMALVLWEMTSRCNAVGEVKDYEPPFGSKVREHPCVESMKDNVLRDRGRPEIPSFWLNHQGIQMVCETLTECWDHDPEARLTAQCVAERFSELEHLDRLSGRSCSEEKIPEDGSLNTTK
# test.method.notes: TGFBR2 RBC assay (enzyme inhibition assay, Reaction Biology Corp.)
# Format: biochemical
# Description: Compounds of the disclosure were also assayed by Reaction Biology Corp. using the TGFBR2 RBC assay (enzyme inhibition assay). […] NT refers to not tested.
test.readout: IC50

These solved cases illustrate the format of a correct answer.
INSERT INTO assay_data (compound, obs_value) VALUES
  ('Nc1ncc(-c2ccc(CNC(=O)[C@@H]3CCCN3)cc2)nc1C(=O)Nc1cnccc1N1CCOCC1', '< 50 nM'),
  ('Nc1ncc(-c2ccc(CCNC(=O)OCc3ccccc3)cc2)nc1C(=O)Nc1cnc(F)cc1N1CCOCC1', '< 50 nM'),
  ('CC(CN)Oc1ccc(-c2cnc(N)c(C(=O)Nc3cnccc3N3CCCOCCC3)n2)cc1 (stereo not drawn)', '> 1000 nM'),
  ('Nc1ncc(-c2ccc3c(c2)CCCN3)nc1C(=O)Nc1cnccc1N1CCOCC1', '< 50 nM'),
  ('NCCc1cccc(-c2cnc(N)c(C(=O)Nc3cnccc3N3CCOCC3)n2)c1', '< 50 nM'),
  ('CC(C)(C)OC(=O)N1CCN(Cc2ccc(-c3cnc(N)c(C(=O)Nc4cnccc4N4CCOCC4)n3)cc2)C(=O)C1', '< 50 nM'),
  ('Nc1ncc(-c2ccc(O[C@H]3C[C@@H](N)C3)cc2)nc1C(=O)Nc1cnccc1N1CCOCC1', '< 50 nM'),
  ('Nc1ncc(-c2cccc(Cl)c2)nc1C(=O)Nc1cnccc1N1CCOCC1', '< 50 nM');

Lab request: please report IC50 under test system TGFBR2 (Homo sapiens, UniProt P37173) for "Nc1ncc(-c2ccc(CCNC(=O)OCc3ccccc3)cc2)nc1C(=O)Nc1cnccc1N1CCCOC1=O"
100 to 1000 nM

Lab request: please report IC50 under test system TGFBR2 (Homo sapiens, UniProt P37173) for "CC(C)(C)OC(=O)N[C@H](Cc1ccc(-c2cnc(N)c(C(=O)Nc3cnccc3N3CCOCC3)n2)cc1)C(=O)O"
< 50 nM

Lab request: please report IC50 under test system TGFBR2 (Homo sapiens, UniProt P37173) for "Nc1ncc(-c2ccc(CCNC(=O)OCc3ccccc3)cc2)nc1C(=O)Nc1cnccc1-c1ccc(=O)[nH]c1"
100 to 1000 nM
